Test: log P by HPLC on reversed-phase columns (OECD Guideline 117), [a] acidic pH 2.7, [b] neutral pH 7.8
Assay type: physicochemical
Conditions: reversed-phase (C18) HPLC column, neutral pH 7.8, read-out: logP[b]
Answer each item with its documented chromatographic logP.
One number for each entry.

Use the examples below as a reference point.
Fc1cccc(-c2ccc3nn(-c4cccnc4)cc3c2)n1 [Example 104]
2.44
Cc1ccnc(-c2ccc3nn(-c4cccnc4)cc3c2)c1 [Example 66]
2.2
O=C(c1ccc2nn(-c3cccnc3)cc2c1)N1CCOCC1 [Example 87]
1.16

Each of the following entries comes with a recorded value; kindly state chromatographic logP for each.
1. Cc1cc(F)c(-c2ccc3nn(-c4cccnc4)cc3c2)cc1SCC(F)(F)F [Example 49]
2. Cc1cc(C)c(SCC(F)(F)F)cc1NC(=O)c1ccc2nn(-c3cccnc3)cc2c1 [Example 81]
3. CSCCNC(=O)c1ccc2nn(-c3cccnc3)cc2c1 [Example 85]

4.11
3.12
1.5

---

Assay: log P by HPLC on reversed-phase columns (OECD Guideline 117), [a] acidic pH 2.7, [b] neutral pH 7.8
Format: physicochemical
Settings: reversed-phase (C18) HPLC column, acidic pH 2.7, read-out: logP[a]
Answer each item with its documented chromatographic logP.
One number for each entry.

Use the examples below as a reference point.
FC(F)(F)Cn1cc(-c2ccc3nn(-c4cccnc4)cc3c2)cn1
2.12
Cc1ccc(-c2ccc3nn(-c4cccnc4)cc3c2)cc1[S+]([O-])CC(F)(F)F (stereo not shown)
2.72

Each of the following entries comes with a recorded value; kindly state chromatographic logP for each.
1. C[S+]([O-])Cn1cc(-c2ccc3nn(-c4cccnc4)cc3c2)cn1 (stereo not shown)
2. Cc1cc(C)c(SCC(F)(F)F)cc1NC(=O)c1ccc2nn(-c3cccnc3)cc2c1
3. Cc1ccnc(-c2ccc3nn(-c4cccnc4)cc3c2)c1
4. Cc1ccc(-c2ccc3nn(-c4cccnc4)cc3c2)nc1

[1.17, 3.15, 0.97, 1.23]

Each of the following entries comes with a recorded value; kindly state chromatographic logP for each.
1. CCSc1ccnc(-c2ccc3nn(-c4cccnc4)cc3c2)c1
2. Cc1cccc(-c2ccc3nn(-c4cccnc4)cc3c2)n1

1. 1.62
2. 1.06

---

Test: log P by HPLC on reversed-phase columns (OECD Guideline 117), [a] acidic pH 2.7, [b] neutral pH 7.8
Format: physicochemical
Settings: reversed-phase (C18) HPLC column, acidic pH 2.7, read-out: logP[a]
Outcome: yes for chromatographic logP of at least 2; no for anything lower.

The following compounds have reported results that may help.
Cn1cc(-c2ccc3nn(-c4cccnc4)cc3c2)cn1 [Example 58]
no
CCn1cc(-c2ccc3nn(-c4cccnc4)cc3c2)cn1 [Example 73]
no
Cc1cc(C)c([S+]([O-])CC(F)(F)F)cc1NC(=O)c1ccc2nn(-c3cccnc3)cc2c1 (centres unmarked) [Example 97]
yes
c1cncc(-c2ccc3nn(-c4cccnc4)cc3c2)c1 [Example 57, 2,5-Bis(3-pyridyl)indazole]
no
c1cnc(-c2ccc3nn(-c4cccnc4)cc3c2)nc1 [Example 60, 2-(3-Pyridyl)-5-pyrimidin-2-yl-indazole]
no
FC(F)(F)c1ccn(-c2ccc3nn(-c4cccnc4)cc3c2)n1 [Example 56]
yes
Cc1cc(F)c(-c2ccc3nn(-c4cccnc4)cc3c2)cc1SCC(F)(F)F [Example 49]
yes

Now for a further compound.
For this compound, is measured chromatographic logP 2 or higher? Clc1cccnc1-c1ccc2nn(-c3cccnc3)cc2c1 [Example 68]
yes

---

Assay: log P by HPLC on reversed-phase columns (OECD Guideline 117), [a] acidic pH 2.7, [b] neutral pH 7.8
Format: physicochemical
Settings: reversed-phase (C18) HPLC column, neutral pH 7.8, read-out: logP[b]
Outcome: true (1) for chromatographic logP of at least 2; false (0) for anything lower.

CN(CC(F)F)C(=O)c1ccc2nn(-c3cccnc3)cc2c1 [Example 86]
false (0)

For this compound, is measured chromatographic logP 2 or higher? Cc1ccc(NC(=O)c2ccc3nn(-c4cccnc4)cc3c2)cc1[S+]([O-])CC(F)(F)F (centres unmarked) [Example 94]
true (1)

For this compound, is measured chromatographic logP 2 or higher? Cc1cc(C)c([S+]([O-])CC(F)(F)F)cc1NC(=O)c1ccc2nn(-c3cccnc3)cc2c1 (centres unmarked) [Example 97]
true (1)

For this compound, is measured chromatographic logP 2 or higher? CCSc1cccnc1-c1ccc2nn(-c3cccnc3)cc2c1 [Example 77]
false (0)

For this compound, is measured chromatographic logP 2 or higher? CCN(CC)C(=O)c1ccc2nn(-c3cccnc3)cc2c1 [Example 89]
false (0)

---

Answer each item with its documented chromatographic logP.
Experiment: log P by HPLC on reversed-phase columns (OECD Guideline 117), [a] acidic pH 2.7, [b] neutral pH 7.8
Type: physicochemical
Conditions: reversed-phase (C18) HPLC column, neutral pH 7.8, read-out: logP[b]
Method: The log P values were determined in accordance with OECD Guideline 117 (EC Directive 92/69/EEC) by HPLC (high-performance liquid chromatography) using reversed-phase (RP) columns (C18), by the following methods: [a] […] Calibration is carried out using unbranched alkan-2-ones (having 3 to 16 carbon atoms) with known log P values (log P values determined on the basis of the retention times by linear interpolation between two successive alkanones).
Give bare numbers.

Cc1cc(C)c([S+]([O-])CC(F)(F)F)cc1-c1ccc2nn(-c3cccnc3)cc2c1 (stereo not drawn)
2.92
Clc1cccnc1-c1ccc2nn(-c3cccnc3)cc2c1
2.21
FC(F)(F)c1cnn(-c2ccc3nn(-c4cccnc4)cc3c2)c1
2.74
CCn1cc(-c2ccc3nn(-c4cccnc4)cc3c2)cn1
1.82
CSCn1ccc(-c2ccc3nn(-c4cccnc4)cc3c2)n1
2.11
Clc1ccnc(-c2ccc3nn(-c4cccnc4)cc3c2)c1
2.66
Cc1cccc(-c2ccc3nn(-c4cccnc4)cc3c2)n1
2.41
FC(F)(F)c1ccn(-c2ccc3nn(-c4cccnc4)cc3c2)n1
2.79

Attention now shifts to the item below.
Can you look up the measured chromatographic logP of c1cnc(-c2ccc3nn(-c4cccnc4)cc3c2)nc1 for me?
1.73

---

Assay: log P by HPLC on reversed-phase columns (OECD Guideline 117), [a] acidic pH 2.7, [b] neutral pH 7.8
Assay type: physicochemical
Settings: reversed-phase (C18) HPLC column, neutral pH 7.8, read-out: logP[b]
Answer each item with its documented chromatographic logP.
Answers are plain numbers.

Use the examples below as a reference point.
CN(C(=O)c1ccc2nn(-c3cccnc3)cc2c1)C1CC1
1.5
Cc1ccc(-c2ccc3nn(-c4cccnc4)cc3c2)cc1SCC(F)(F)F
4.07
Cc1cc(C)c(-c2ccc3nn(-c4cccnc4)cc3c2)cc1SCC(F)(F)F
4.4
O=C(c1ccc2nn(-c3cccnc3)cc2c1)N1CCSCC1
1.58
C[S+]([O-])Cn1cc(-c2ccc3nn(-c4cccnc4)cc3c2)cn1 (stereo not drawn)
1.19
c1cncc(-c2ccc3nn(-c4cccnc4)cc3c2)c1
1.71
CCSc1ccnc(-c2ccc3nn(-c4cccnc4)cc3c2)c1
2.84
CCSc1cccc(-c2ccc3nn(-c4cccnc4)cc3c2)n1
3.57

Can you look up the measured chromatographic logP of O=C(c1ccc2nn(-c3cccnc3)cc2c1)N1CCCC1 for me?
1.48

---

Tested on: green peach aphid (Myzus persicae)
Assay: Myzus persicae spray test (Chinese cabbage leaf discs)
Assay type: in vivo
Conditions: foliar, 144 h, read-out: efficacy in %
Answer each item with its documented pest or weed control at 500 g/ha.
Give bare numbers, in %.

Use the examples below as a reference point.
CS(=O)(=O)CCNC(=O)c1ccc2nn(-c3cccnc3)cc2c1
90
Cc1cc(C)c([S+]([O-])CC(F)(F)F)cc1NC(=O)c1ccc2nn(-c3cccnc3)cc2c1 (stereo not shown)
100
Cc1ccc(C(=O)N(C)c2ccc3nn(-c4cncc(F)c4)cc3c2)cc1[S+]([O-])CC(F)(F)F (stereo not shown)
90
Cn1ccc(-c2ccc3nn(-c4cccnc4)cc3c2)n1
90
Cc1ccc(C(=O)N(C)c2ccc3nn(-c4cccnc4)cc3c2)cc1[S+]([O-])CC(F)(F)F (stereo not shown)
100

Each of the following entries comes with a recorded value; kindly state pest or weed control at 500 g/ha for each.
1. Cn1cc(-c2ccc3nn(-c4cccnc4)cc3c2)cn1
2. FC(F)(F)c1ccn(-c2ccc3nn(-c4cccnc4)cc3c2)n1
3. Cc1cc(F)c(-c2ccc3nn(-c4cccnc4)cc3c2)cc1[S+]([O-])CC(F)(F)F (stereo not shown)
4. CSCn1ccc(-c2ccc3nn(-c4cccnc4)cc3c2)n1
5. CN(C)C(=O)c1ccc2nn(-c3cccnc3)cc2c1
6. Fc1cncc(-n2cc3cc(C(F)(F)F)ccc3n2)c1
7. CC(CS(C)(=O)=O)C(=O)N(C)c1ccc2nn(-c3cccnc3)cc2c1 (stereo not shown)
8. CCSc1ccc(-c2ccc3nn(-c4cccnc4)cc3c2)nc1

[90, 90, 100, 90, 100, 100, 90, 100]

Each of the following entries comes with a recorded value; kindly state pest or weed control at 500 g/ha for each.
1. CCN(CC)C(=O)c1ccc2nn(-c3cccnc3)cc2c1
2. O=C(NCC(F)F)c1ccc2nn(-c3cncnc3)cc2c1

100
100
